Experimental System: Kelch-like ECH-associated protein 1 (Homo sapiens)
Assay Method Text: Binding affinity to human KEAP1 by fluorescence polarization assay
Residues, ends and D or L forms follow the SMILES beside them.
Property: Kd (nM)
Reply numerically in nM, unit not repeated.

N[C@@H](CC(=O)O)C(=O)N[C@@H](CC(=O)O)C(=O)N[C@@H](Cc1c[nH]c2ccccc12)C(=O)O (H-Asp-Asp-Trp-OH) | 100

Read the next record carefully.
For the molecule NCCCC[C@H](NC(=O)[C@H](CCCCN)NC(=O)[C@@H](N)CC(=O)O)C(=O)O (H-Asp-Lys-Lys-OH) , the measured Kd on Kelch-like ECH-associated protein 1 (Homo sapiens) was 120

###

Experimental System: Kelch-like ECH-associated protein 1 (Homo sapiens, UniProt Q14145)
Sequence (Q14145 whole entry, the tested form may be a part): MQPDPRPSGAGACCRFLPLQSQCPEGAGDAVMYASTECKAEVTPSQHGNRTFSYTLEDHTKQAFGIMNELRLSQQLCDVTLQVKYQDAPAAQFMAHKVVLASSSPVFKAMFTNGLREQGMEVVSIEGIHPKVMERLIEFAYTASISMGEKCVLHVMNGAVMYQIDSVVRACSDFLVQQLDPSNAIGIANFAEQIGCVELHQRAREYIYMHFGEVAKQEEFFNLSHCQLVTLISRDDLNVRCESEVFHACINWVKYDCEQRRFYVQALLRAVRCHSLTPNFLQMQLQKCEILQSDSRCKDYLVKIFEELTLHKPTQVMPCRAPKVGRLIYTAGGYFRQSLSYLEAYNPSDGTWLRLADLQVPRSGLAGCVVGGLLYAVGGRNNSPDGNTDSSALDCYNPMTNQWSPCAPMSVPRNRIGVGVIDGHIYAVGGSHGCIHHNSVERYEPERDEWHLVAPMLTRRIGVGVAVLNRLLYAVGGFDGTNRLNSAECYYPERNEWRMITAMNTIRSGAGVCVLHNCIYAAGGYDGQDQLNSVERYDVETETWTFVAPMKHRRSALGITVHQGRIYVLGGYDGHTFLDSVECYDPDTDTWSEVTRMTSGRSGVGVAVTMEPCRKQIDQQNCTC
Assay Method Text: Binding affinity to human KEAP1 Kelch domain by SPR direct binding assay
Property: pKd
Scale for pKd: -log10 of concentration given in mol/L; no unit attached.

For the compound `O=c1c2ccccc2nc2c3[nH]c4ccccc4c3ccn12` , the measured pKd on Kelch-like ECH-associated protein 1 (Homo sapiens, UniProt Q14145) was 4.71
